Data origin: patent US11339153B2

- system.name: Human FXR receptor (NR1H4) (Homo sapiens)
- Sequence (Q96RI1 1-486): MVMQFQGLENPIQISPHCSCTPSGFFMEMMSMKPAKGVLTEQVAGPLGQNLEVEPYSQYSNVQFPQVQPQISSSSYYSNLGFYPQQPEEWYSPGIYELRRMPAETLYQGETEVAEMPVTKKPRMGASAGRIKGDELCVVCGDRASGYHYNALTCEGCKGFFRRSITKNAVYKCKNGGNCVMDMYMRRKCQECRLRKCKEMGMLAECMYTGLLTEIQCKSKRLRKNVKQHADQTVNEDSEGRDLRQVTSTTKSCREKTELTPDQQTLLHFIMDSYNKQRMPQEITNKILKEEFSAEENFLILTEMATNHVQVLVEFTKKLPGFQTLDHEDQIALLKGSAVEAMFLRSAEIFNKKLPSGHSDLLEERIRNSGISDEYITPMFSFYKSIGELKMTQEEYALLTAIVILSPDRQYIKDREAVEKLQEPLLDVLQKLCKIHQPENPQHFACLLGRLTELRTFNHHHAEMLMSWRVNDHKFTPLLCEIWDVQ
- method.description: Human Farnesoid X Receptor (NR1H4, FXR) Reporter Assay (Indigo Bioscience kit, luciferase)
- condition.info: Human FXR (NR1H4) reporter assay, 22-24 h incubation
reported.endpoint: EC50

[[record]]
compound = "O=S([O-])c1cc(F)c2nc(N3[C@@H]4CC[C@H]3C[C@@H](OCc3c(-c5ccccc5OC(F)(F)F)noc3C3CC3)C4)sc2c1.[Na+] [Example 4]"
system_name = "Human FXR receptor (NR1H4) (Homo sapiens)"
result = "< 0.5 µM"

[[record]]
compound = "O=S([O-])c1cccc(N2CC(O)(c3ccc(OCc4c(-c5c(Cl)cccc5Cl)noc4C4CC4)cc3Cl)C2)c1.[Na+] [Example 6]"
system_name = "Human FXR receptor (NR1H4) (Homo sapiens)"
result = "> 5 µM"

[[record]]
compound = "O=S(O)c1ccc(C2CC2c2ccc(OCc3c(-c4c(Cl)cccc4Cl)noc3C3CC3)cc2Cl)cc1 (stereo not shown) [Example 8]"
system_name = "Human FXR receptor (NR1H4) (Homo sapiens)"
result = "0.5 to 5 µM"


Now look at this one.
Provide only the value of recorded EC50 for O=S(O)c1ccc(C2CC(O)(c3ccc(OCc4c(-c5c(Cl)cccc5Cl)noc4C4CC4)cc3Cl)C2)cc1 (stereo not shown) [Example 7]
> 5 µM

====

- system.name: Human FXR receptor (NR1H4) (Homo sapiens, UniProt Q96RI1)
- method.description: Human Farnesoid X Receptor (NR1H4, FXR) Reporter Assay (Indigo Bioscience kit, luciferase)
- Format: cell-based
- condition.info: normalized to GW4064 set as 100%
reported.endpoint: Efficacy (%)
Answers are plain numbers, in %.

[[record]]
compound = "O=S([O-])c1cccc(N2CC(O)(c3ccc(OCc4c(-c5c(Cl)cccc5Cl)noc4C4CC4)cc3Cl)C2)c1.[Na+] [Example 6]"
reported_endpoint = "Efficacy (%)"
numeric_value = 96


Return reported Efficacy (%) values for all items listed beneath this line.
1. O=S([O-])c1cc(F)c2nc(N3[C@@H]4CC[C@H]3C[C@@H](OCc3c(-c5ccccc5OC(F)(F)F)noc3C3CC3)C4)sc2c1.[Na+] [Example 4]
2. O=S(O)c1ccc(C2CC2c2ccc(OCc3c(-c4c(Cl)cccc4Cl)noc3C3CC3)cc2Cl)cc1 (stereo not shown) [Example 8]
3. O=S(O)c1ccc(C2CC(O)(c3ccc(OCc4c(-c5c(Cl)cccc5Cl)noc4C4CC4)cc3Cl)C2)cc1 (stereo not shown) [Example 7]

1: 94; 2: 127; 3: 89
